Could you please report measured T/C for the items listed next?
- Test system: Mus musculus
- assay.details: In vivo cytotoxicity against L1210 murine leukemia, expressed as median survival time of treated vs. untreated mice X 100 (CDF21 mice were given an injection of 105 cells i.p. and treated on day 1)
- Format: functional
Give the quantity in %, number only.

What value of T/C has been reported for the following compound? Cl.Cn1cc(NC(=O)c2cc(NC(=O)c3cc(NC(=O)c4ccc(N(CCCl)CCCl)cc4)nn3C)cn2C)cc1C(=O)NCCC(=N)N 118

Proceed to Cl.Cn1cc(NC(=O)c2cc(NC(=O)c3cc(NC(=O)c4ccc(N(CCCl)CCCl)cc4)cn3C)cn2C)cc1C(=O)NCCC(=N)N [TALLIMUSTINE CHLORIDE] 175

Proceed to C=C(Br)C(=O)Nc1cc(C(=O)Nc2cc(C(=O)Nc3cc(C(=O)NCCC(=N)N)n(C)c3)n(C)c2)n(C)n1.Cl 181

Proceed to Cl.Cn1cc(NC(=O)c2ccc(N(CCCl)CCCl)cc2)cc1C(=O)Nc1cc(C(=O)Nc2cc(C(=O)NCCC(=N)N)n(C)n2)n(C)n1 259

Proceed to Cl.Cn1cc(NC(=O)c2ccc(N(CCCl)CCCl)cc2)cc1C(=O)Nc1cc(C(=O)Nc2cc(C(=O)NCCC(=N)N)n(C)n2)n(C)c1 213
